Please respond with reported pKd for every item in the list.
Target: ctHir3 (Chaetomium thermophilum, UniProt G0S723 1-2235)
Assay: fluorescence polarization
Give bare numbers, as −log10 of the molar value.

AAAACAAAUAUGCAUAUUAUCGAGAGG (ssRNA) [ssRNA probe] : 6.53

Okay, next one:
Exercise: Quick check: pKd of TAGGGAGTAATCCCCTTGGCGG (ssDNA) [ssDNA probe] ?
Key: 6.27

Entry source: paper PMC11338637
